Tested on: M14 melanoma
ASSAY_INFO: NCI tumour cell line growth inhibition, 48 h; in the data active means GI50 below about 0.43 µM; inactive means the rest
Hi there, use one of these labels in your reply, thanks! true (1) = active, false (0) = inactive

- MOLECULE: "COC(=O)[C@H](CC(C)C)NC(=O)NC(=O)NC(=O)CI"
  ASSAYED_TARGET: "M14 melanoma"
  ASSIGNED_CATEGORY: "false (0)"
- MOLECULE: "COc1ccc(/C=C/c2cc(N3CCOCC3)c3cc(F)c(F)cc3n2)cc1OC"
  ASSAYED_TARGET: "M14 melanoma"
  ASSIGNED_CATEGORY: "false (0)"
- MOLECULE: "Nc1ccccc1NC(=O)c1ccc(CN2CCC/C(=C\\c3cccc(Cl)c3)C2=O)cc1"
  ASSAYED_TARGET: "M14 melanoma"
  ASSIGNED_CATEGORY: "true (1)"

[Q] Assay result, entry CCOC(=O)c1cc(C(=O)c2cc(OC)cc(OC)c2)n2ncc3ccccc3c12 — outcome?
[A] false (0)

[Q] Recorded call for CCCCN(CCCC)CCCN=c1nc2c(c(N)n1-c1ccccc1)c(=S)n(-c1ccccc1)c(=S)n2-c1ccccc1 ?
[A] true (1)

[Q] What is the recorded call for this molecule in the test? C#COc1cccc(Nc2ncnc3ncc(NC(=O)CCl)cc23)c1
[A] false (0)

[Q] Please indicate how the test categorized CN(C)CCN=Cc1c2ccccc2c(=O)n2c1oc1ccccc12 .
[A] false (0)

[Q] Hi, do you know how CC1OC(OC2CC(O)C3(CO)C4C(O)CC5(C)C(C6=CC(=O)OC6)CCC5(O)C4CCC3(O)C2)C(O)C(O)C1O (stereo not drawn) came out in this test?
[A] true (1)

[Q] Which outcome was assigned to N#Cc1cccc(NC(=O)c2oc3ccccc3c2-c2cnn(-c3ccccc3)c2)c1 in this test?
[A] false (0)

[Q] // param item: N#Cc1c(NC(=O)CN2CCOCC2)sc2c1CCCC2 ; yields the recorded call
[A] false (0)

[Q] Please indicate how the test categorized O=C(c1cccs1)c1c(C(F)(F)F)n([O-])c2ccc(F)cc2[n+]1=O .
[A] false (0)

This collection of values is drawn from PubChem BioAssay (NCI).
